Molecular target: Human liver cathepsin L (Homo sapiens (Human), UniProt P07711)
Sequence (P07711 114-333): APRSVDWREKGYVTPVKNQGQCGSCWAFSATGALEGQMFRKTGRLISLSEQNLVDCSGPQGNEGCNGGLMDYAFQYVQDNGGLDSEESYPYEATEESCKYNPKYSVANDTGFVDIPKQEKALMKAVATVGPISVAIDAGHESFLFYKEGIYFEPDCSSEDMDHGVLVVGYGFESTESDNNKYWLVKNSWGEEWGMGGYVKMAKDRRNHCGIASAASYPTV
Test: In vitro cathepsin Ki inhibition measurements, cathepsin L
Format: biochemical
Details: read-out: In vitro Ki (nM) vs Cath L
Here the recorded Ki is given for each entry.

In the examples that follow, each entry is paired with its recorded Ki.
[
  {
    "compound": "C[C@H]1CC[C@H]([C@H](NC(=O)c2ccccc2)C(=O)N2C[C@@H](Cl)[C@H]3OCC(=O)[C@H]32)CC1 [Compound 6]",
    "Ki": "> 10000 nM"
  },
  {
    "compound": "C[C@H]1CC[C@H]([C@H](NC(=O)c2cccc(-n3cnnn3)c2)C(=O)N2CC[C@H]3OCC(=O)[C@H]32)CC1 [Compound 10]",
    "Ki": "> 10000 nM"
  },
  {
    "compound": "O=C(N[C@H](C(=O)N1C[C@H](F)[C@H]2OCC(=O)[C@H]21)C1CCCCC1)c1ccccc1 [Compound 2]",
    "Ki": "580 nM"
  },
  {
    "compound": "O=C(N[C@@H](CC1CCCCC1)C(=O)N1CC[C@H]2OCC(=O)[C@H]21)c1ccccc1 [compound (38), reference compound]",
    "Ki": "1700 nM"
  }
]

Would you kindly share the measured Ki for C[C@H]1CC[C@H]([C@H](NC(=O)c2cccc(-n3cnnn3)c2)C(=O)N2C[C@@H](Cl)[C@H]3OCC(=O)[C@H]32)CC1 [Compound 12] ?
> 10000 nM

And O=C(N[C@H](C(=O)N1C[C@H](Cl)[C@H]2OCC(=O)[C@H]21)C1CCCCC1)c1cccc(-n2cnnn2)c1 [Compound 9] ?
> 1200 nM

Ref: patent US8552202B2
